Tested target: human EphB2-His ectodomain - human EphrinB2-Fc ectodomain (EphB2-EphrinB2 tetramer) (Homo sapiens, UniProt P29323+P52799)
Sequence (P52799 28-229): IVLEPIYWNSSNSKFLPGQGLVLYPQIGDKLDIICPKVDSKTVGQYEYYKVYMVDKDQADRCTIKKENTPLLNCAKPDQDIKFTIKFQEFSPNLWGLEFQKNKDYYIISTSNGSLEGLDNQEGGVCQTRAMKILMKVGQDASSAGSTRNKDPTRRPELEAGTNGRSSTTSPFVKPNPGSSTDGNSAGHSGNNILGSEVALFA
Sequence (P29323 19-543): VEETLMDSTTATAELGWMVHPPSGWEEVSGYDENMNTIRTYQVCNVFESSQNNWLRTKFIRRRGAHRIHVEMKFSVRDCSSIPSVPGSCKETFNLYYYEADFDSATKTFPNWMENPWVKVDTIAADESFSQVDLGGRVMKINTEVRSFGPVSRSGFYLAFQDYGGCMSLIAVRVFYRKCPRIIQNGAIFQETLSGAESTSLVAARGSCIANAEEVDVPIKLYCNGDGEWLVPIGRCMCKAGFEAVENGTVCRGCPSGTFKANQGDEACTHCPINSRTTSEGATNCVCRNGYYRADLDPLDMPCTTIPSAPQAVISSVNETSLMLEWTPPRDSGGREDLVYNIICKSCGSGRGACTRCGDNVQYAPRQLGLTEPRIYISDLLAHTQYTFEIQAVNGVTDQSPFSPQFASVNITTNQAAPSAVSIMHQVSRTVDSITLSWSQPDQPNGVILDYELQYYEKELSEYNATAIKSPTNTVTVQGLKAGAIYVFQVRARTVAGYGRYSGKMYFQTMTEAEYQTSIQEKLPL
Assay details: biochemical
pIC50: −log10 of the molar value.
Measurement name: pIC50

QUERY: Please report the recorded pIC50 for O=C(O)[C@@H](S)[C@@H](S)C(=O)O .
RESULT: ~4.30

* * *

Some compounds, each annotated with its measured IC50.
Tested target: human EphB2-His ectodomain - human EphrinB2-Fc ectodomain (EphB2-EphrinB2 tetramer) (Homo sapiens, UniProt P29323+P52799)
Assay details: biochemical

COCCN(CCCCc1ccc2c(n1)NCCC2)CC[C@H](Nc1ncnc2ccccc12)C(=O)O [compound 9, Bexotegrast]	> 100 µM

# ---- query compound ----
QUERY: Please report the recorded IC50 for O=C(O)c1ccc(-n2nc(-c3ccccc3O)nc2-c2ccccc2O)cc1 [compound 3, Deferasirox] .
RESULT: > 100 µM
